biological target: GLP-1 Receptor (Homo sapiens, UniProt P43220); assay: GLP-1R agonist cAMP stimulation assay (HEK293/GLP1R/CRE-LUC cells, cAMP dynamic 2 Kit); conditions: HEK293/CRE-Luc cell line stably expressing the GLP-1 Receptor, 30 min at 37° C.
Sequence (P43220 24-463, species assumed): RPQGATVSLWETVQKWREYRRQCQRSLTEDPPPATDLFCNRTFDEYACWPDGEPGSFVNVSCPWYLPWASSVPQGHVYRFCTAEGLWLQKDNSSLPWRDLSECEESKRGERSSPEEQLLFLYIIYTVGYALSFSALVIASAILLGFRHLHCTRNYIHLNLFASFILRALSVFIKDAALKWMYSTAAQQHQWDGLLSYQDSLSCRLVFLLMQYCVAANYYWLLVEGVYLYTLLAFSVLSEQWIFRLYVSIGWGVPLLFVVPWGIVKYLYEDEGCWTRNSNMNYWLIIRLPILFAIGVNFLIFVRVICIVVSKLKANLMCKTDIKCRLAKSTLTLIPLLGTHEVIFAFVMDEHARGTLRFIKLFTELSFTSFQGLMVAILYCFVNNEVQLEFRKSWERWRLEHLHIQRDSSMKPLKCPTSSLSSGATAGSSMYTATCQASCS
Classify: Fulfilled when EC50 is strictly less than 0.3 nM; Not fulfilled when EC50 is not.

CO[C@H](C)Cn1c(CN2CCC(c3cccc4c3O[C@@](C)(c3ccc(C#N)cc3F)O4)CC2)nc2cc(-c3nnc(C(F)(F)F)[nH]3)ncc21 [Compound 442a] ... Fulfilled

Find out if reported EC50 for O=c1[nH]c(-c2cnc3c(c2)nc(CN2CCC(c4cccc5c4OC[C@@H](c4ccc(Cl)cc4)O5)CC2)n3C[C@@H]2CCO2)no1 [Compound 407a] is less than 0.3 nM Not fulfilled

Is EC50 of Fc1cc(Cl)ccc1COc1cccc(N2CCN(Cc3nc4cc(-c5nnc(C(F)(F)F)[nH]5)nnc4n3C[C@@H]3CCO3)CC2)n1 [Compound 492a] strictly below 0.3 nM? Fulfilled

Below 0.3 nM on EC50? Entry O=c1[nH]c(-c2cc3nc(CN4CC=C(c5cccc(OCc6ccc(Cl)cc6F)c5)CC4)n(C[C@@H]4CCO4)c3cn2)no1 [Compound 308a] Not fulfilled

Hi there! Is EC50 for Fc1cc(C2CC2)ccc1COc1cccc(C2CCN(Cc3nc4cc(-c5nnc(C(F)(F)F)[nH]5)ncc4n3C[C@@H]3CCO3)CC2)n1 [Compound 498a] below 0.3 nM, do you know? Fulfilled

Consider COC1(C(=O)Nc2ccc3c(c2)nc(CN2CCC(c4cccc(OCc5ccc(Cl)cc5F)n4)CC2)n3C[C@@H]2CCO2)CCCOC1 (stereo partly drawn) [Compound 196a] . Does its EC50 lie strictly below 0.3 nM? Not fulfilled

Hi there! Is EC50 for O=C(Nc1ccc2c(c1)nc(CN1CCC(c3cccc(OCc4ccc(Cl)cc4F)n3)CC1)n2C[C@@H]1CCO1)c1ccccc1 [Compound 166a] below 0.3 nM, do you know? Fulfilled

Lab log: compare recorded EC50 with 0.3 nM; is it strictly lower for Fc1cc(Cl)ccc1COc1nc(C2CCN(Cc3nc4cc(-c5nnc(C(F)(F)F)[nH]5)ncc4n3C[C@@H]3CCO3)CC2)ncc1F [Compound 491a] ? Fulfilled

Given Fc1cc(Cl)ccc1COc1ccc(F)c(N2CCN(Cc3nc4cc(-c5nnc(C(F)(F)F)[nH]5)nnc4n3C[C@@H]3CCO3)CC2)n1 [Compound 502a] , is recorded EC50 strictly lower than 0.3 nM? Fulfilled

Dear colleague, could you confirm whether EC50 of C[C@H]1CN(c2cccc(OCc3ccc(Cl)cc3F)n2)CCN1Cc1nc2cc(-c3nnc(C(F)(F)F)[nH]3)nnc2n1C[C@@H]1CCO1 [Compound 519a] falls below 0.3 nM? Thanks. Fulfilled

Dear colleague, could you confirm whether EC50 of CNc1c(Nc2ccc3c(c2)nc(CN2CCC(c4cccc(OCc5ccc(Cl)cc5F)n4)CC2)n3C[C@@H]2CCO2)c(=O)c1=O [Compound 208a] falls below 0.3 nM? Thanks. Not fulfilled

In the record for Fc1cc(Cl)ccc1COc1nccc(C2CCN(Cc3nc4cc(-c5nnc(C(F)(F)F)[nH]5)ncc4n3C[C@@H]3CCO3)CC2)n1 [Compound 505a] , is EC50 less than 0.3 nM? Fulfilled

Hello, is EC50 of the following compound strictly smaller than 0.3 nM? CC1(c2ccc(Cl)cc2F)Oc2cccc(C3CCN(Cc4nc5cc(-c6noc(=O)[nH]6)ccc5n4CC4(C#N)CC4)CC3)c2O1 (stereo not drawn) [Compound 231a] Fulfilled
